assay_remarks: anti-His antibody binders, primary screen, artefact control for SMM control protein annotation, biochemical, small-molecule microarray, 635 nm fluorescence (AID 1128);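 further: score merges feature fluorescence with signal-to-noise for each printed compound spot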
conditions_used: anti-His Alexa647 antibody binding, higher = more signal
quantity: composite z-score

# composite z-score of `CCOC(=O)C[C@H]1[C@H](OC(=O)c2cc3ccccc3oc2=O)[C@@H](NC(=O)C2CCCCC2)c2cc(OCCCO)ccc2N1C(=O)c1ccccc1` = 0.127

Briefly, composite z-score measured for `O=C(O)[C@@]1(CCS(=O)(=O)c2ccccc2)COC(c2ccc(OCCCO)cc2)=N1` : -0.777

Lab note: measured composite z-score of `O=C1[C@H]2C=C(Br)[C@H](C[C@@H]2OCCCCO)[C@@]12CO2` was -0.0684

Measured composite z-score, `[N-]=[N+]=NCc1ccccc1[C@@H]1OC(c2ccc(OCCCO)cc2)=N[C@]1(CCS(=O)(=O)c1ccccc1)C(=O)NCCN1CCOCC1` : 1.68

Short answer for `Cc1ccc(S[C@]2(C(=O)NCCN3CCOCC3)CC(=O)N(Cc3ccccc3Cl)[C@@H]2c2ccc(CO)cc2)cc1` : composite z-score was 1.69

For reference, reported composite z-score for `COc1ccc(C#Cc2ccc3c(c2)[C@]2(C(=O)N3)[C@H](c3ccccc3OCCO)N3[C@H](c4ccccc4)[C@H](c4ccccc4)OC(=O)[C@H]3[C@@H]2C(=O)O)cc1` stands at 1.61

Lab note: [N-]=[N+]=NCc1ccccc1C[C@@]1(C(=O)NCC(O)CO)N=C(c2ccc(OCCCO)cc2)O[C@@H]1c1ccccc1N=[N+]=[N-] (stereo partly drawn) gave composite z-score of 2.41

Recorded result, `C=C(CCCC)C(=O)CC[C@H](OC(C)=O)c1cccc(OCCO)c1` , composite z-score: -0.393

Looking up CCCCN1CC=CC23O[C@@H]4C=CCOC(=O)[C@@H]4[C@H]2C(=O)N(CCCCCO)[C@@H]3C1=O (stereo partly drawn) , I found its composite z-score recorded as 0.0981

Measured composite z-score, `COc1ccc(CCNC(=O)[C@@H]2c3ccccc3C(=O)N(C3Cc4ccccc4C3)[C@H]2c2ccc(CO)cc2)cc1` : 1.12

The recorded composite z-score for entry `COCC(=C=CC[C@@H](O)c1ccccc1OCCO)C[C@@H](O)c1cc(Cl)cc(Cl)c1O` equals 0.819

Measured composite z-score, `COCCOC(=O)N1C(=O)[C@@]2(c3cc(C#CCCO)ccc31)[C@H](C(=O)Nc1nc3ccccc3s1)[C@H]1C(=O)O[C@H](c3ccccc3)[C@H](c3ccccc3)N1[C@@H]2c1ccc(OCCO)cc1` : 0.738

composite z-score reading for C=CCC(OC(C)=O)[C@@H]1[C@@H](N(Cc2ccc(-c3cccc(C(F)(F)F)c3)o2)C(=O)c2ccc(-c3ccccc3)cc2)c2cc(OCCCO)ccc2N1C(=O)c1ccc(-c2ccccc2)cc1 (stereo partly drawn) : -0.674
